Assay: soluble on expression in E. coli; label from the status in PepcDB or PDB records

[
  {
    "Sequence Record": "GPGSMNVCSNTTKDPLTLMAMWGSMKGYNPEQGFSFEGPEKRLEVILRSTLETHVDGLRSLDDSVWSGVVGSLNAQIVSRESNEYINSYVLTESSLFVMKNRIILITCGTTTLLNSIPNILEAISAVRGELEWVSFMHKNYSFPWMQKGPHTSLADEFATLKQHFPTGKPYIFGPVDSDHYFLFCYDDIIRPCSSEDDTQLSMTMYGLDKEQTKYWFRDRFISTSAETAAIRAATHLDRVVDGTWTLHDLQFEPCGYSINAIRDEEYQTMHITPEDHCSFASYETNSRATNYSDRMKKVLGVFRPQRFTVIVFLDPESPVGKAYNEGKGIGVEPEYYPEYSLLHRTTNEFAPGYVAMKINYVRTAAVEETDAAVGGAEPGAKSGPD",
    "soluble on expression in E. coli": "not soluble"
  },
  {
    "Sequence Record": "MGSDKIHHHHHHMTTYSPSQENYRELAHLLARFTSLTQIKTIFYDFTGILLKDDFVYINHSAIEDNLAQLTFSDYAVFPVSRNIQMWGAILCESVNVSKKRLFLSRSYLENLMTQIFDEDTLGKVSVWEPLTSDQVGQINNLHALFHPTGDTDPLQAVLAPNAVIAGHTIDNDEAFRSISLAIDYIQKNIQRPISLNEVAQRAYLSPSYLSRLFKKYLHVNFIEYVNNQKIALAQEKLSLTLTPINQISNQIGFTQTSYFTKIFKKKTGITPSEFRQRNHTIQKIYTIPRELNWDTNDSVIDVTKNYFKSHHITYHTDSEEGATYVNSIGELNDAKGNRGWIYTVDGQQPTQSADEIATHDKSVIQWVYTDYSN",
    "soluble on expression in E. coli": "not soluble"
  },
  {
    "Sequence Record": "MFRTAETSRDTLITTAYRLHRTRWRILEPYRRLKNALKKLQEDYLKSKEANALMRYVKLGQSVREVAMLEKQYWKLLNIPAQEGTEDANCYVVKIIELLEDTPTQLPPTRGIGALLQSTIGKPAEANVDTVLHDSLKARKSEDLVKECEGLYAQLYRLTKKYLGLRRLIKELHDKYEATRMFPIVPRYAMLKKMIKATLRAPEFADICHEQTE",
    "soluble on expression in E. coli": "not soluble"
  }
]

###

Experiment: soluble on expression in E. coli; label from the status in PepcDB or PDB records
Assay Endpoint: soluble on expression in E. coli

[
  {
    "Sequence Record": "MKPNITWGLQKIQAHGIADNTIYATEGTQIIFTVTSPWIPVFKVNDDVKIALTLTRHEEAWWIINQSTEYCCTVNDQIVEPHHRMRLNEGDLIEWGLSS",
    "Result": "not soluble"
  },
  {
    "Sequence Record": "GHMQTQGLAKDAWEIPRESLRLEVKLGQGCFGEVWMGTWNGTTRVAIKTLKPGTMSPEAFLQEAQVMKKLRHEKLVQLYAVVSEEPIYIVTEYMSKGCLLDFLKGEMGKYLRLPQLVDMAAQIASGMAYVERMNYVHRDLRAANILVGENLVCKVADFGLARLIEDNEYTARQGAKFPIKWTAPEAALYGRFTIKSDVWSFGILLTELTTKGRVPYPGMVNREVLDQVERGYRMPCPPECPESLHDLMCQCWRKDPEERPTFEYLQAFLEDYFTSTEPQYQPGENL",
    "Result": "soluble"
  },
  {
    "Sequence Record": "MSLGSGVAEPEFPVHGDDRAAAFFDLDNTVMQGAAIFHFGRGLYKRKFFETRDLARFAWQQAWFRLAGFEDPEHMQDARDSALSIVKGHRVSELKSIGEEIYDEYMAERIWPGTRALAQAHLDAGQKVWLVTAAPVEIAQVIARRLGLTGALGTVAESIGGVYTGKLVGEPLHGPAKAEAVRALATAEALDLSRCAAYGDSHNDIPMLSLVGHPYAINPDSKLRKHARELEWRLRDYRTGRKAAKEGHHHHHH",
    "Result": "soluble"
  },
  {
    "Sequence Record": "MNINKKVTLQRIQTLTELHGAPGFEEEVKNYMTQQMAPYVDEFIENRMGGFFGVKKSKNPNAKRVMIAAHMDEIGFMITNITKNGMIQFTNLGGVANDIWQGQRLVIKNRNGDKIIGVVSNIPKHFRTGSEGAPEIKDLTLDIGAQNEDEVRERGIDIGDTIVPHTPFTQLSEHRYSAKAWDNRYGCVLAIEILELLKDIELDVDLYVGANVQEEVGLRGAKASAEMIDPDVAFVVDCSPANDVKGNQPLSGELGKGTLIRIKDGTMILKPVFRDYLLKLVEAHDIEHQYYMSPGGTDGGEIHKANIGIPTAVIGVCARYIHSTDSVFDIRDYFAARSLLSEAICNLDNNQIETLQYK",
    "Result": "not soluble"
  },
  {
    "Sequence Record": "MGSDKIHHHHHHMKYEKIAFFRFFGRLNDFFRNSERIKTHRFTGFQTVKDRIEALGVPHVEVSLITLNGKPVGFDHMVEDGELFFVYPEFQNIEIPEDWLVTPRYIGEPRFVLDIHLGKLARLLRMLGFEAVFGEESDEKLCWMAVKKKAILLSRDTGLLKRKELVFGYYVRNTDPKEQLVEVVERYDLKKWMKPFTRCIECGVELEEVPKEAVKNRVPPKVYGFFNEFARCPVCGRIYWKGSHYDHMVEFIKSNINKG",
    "Result": "not soluble"
  }
]

The record that follows has no soluble on expression in E. coli shown yet.
Entry under review: MGSDKIHHHHHHMSLFHLIAPSGYCIKQHAALRGIQRLTDAGHQVNNVEVIARRCERFAGTETERLEDLNSLARLTTPNTIVLAVRGGYGASRLLADIDWQALVARQQHDPLLICGHSDFTAIQCGLLAHGNVITFSGPMLVANFGADELNAFTEHHFWLALRNETFTIEWQGEGPTCRAEGTLWGGNLAMLISLIGTPWMPKIENGILVLEDINEHPFRVERMLLQLYHAGILPRQKAIILGSFSGSTPNDYDAGYNLESVYAFLRSRLSIPLITGLDFGHEQRTVTLPLGAHAILNNTREGTQLTISGHPVLKM . Reported soluble on expression in E. coli?
not soluble

###

Assay: soluble on expression in E. coli; label from the status in PepcDB or PDB records

[
  {
    "Sequence Record": "MMSSQAWTDVENDLIVADYFAMLAEDVAGHPYNKAEHRRQLLPRLNDRSDGSVEFKHQNISAVLKGLGEVWITGYKPAFNFQTSLVDAVARWLVINPGWTHRTLSSRPVDGMAEAAQLWVGPAPTLTNQPSPDELEQMLHIAKKFDVAARDGRNRALGKAGEERVLKHERNTLTAAGREDLAQQIRWVSEEEGDGAGYDIASFDADGRQRLIEVKTTNGWERTPFHISRNELAVADERREEWCLFRLWNFARTPKAFELRPPLDAYVSLTATSFQASIHLEHHHHHH",
    "soluble on expression in E. coli": "not soluble"
  },
  {
    "Sequence Record": "MGSDKIHHHHHHMIDLHCHILPNIDDGAKSIDEAIALVALAAEQGVSRMVATPHIHLGIYDNNLQSINAAYHLLCDALALTNIDIQLRAAAEVRVSPEIMLFIEQQQLPFLGRYQQKDVLLLELPSSHIPPGTDKLISWLLAKNVLPMIAHPERNRELQSHPERITPFVRAGCLFQLTAASLIGDMGEAPKQLSEYFIKQKLYSIIGSDCHSLNRRPPKLLQAQHAVTALTDQEYAFALTTSMPGSISNVLFAESSD",
    "soluble on expression in E. coli": "not soluble"
  }
]

###

Test: soluble on expression in E. coli; label from the status in PepcDB or PDB records
Assay Endpoint: soluble on expression in E. coli

[
  {
    "Sequence Record": "MSLKTQQSYQQRDDKGTLYLVATPIGNLEDVTFRAIRTLKEADQIAAEDTRQTKKLLNHFDIATKLVSYHEHNKETMGKRLIDDLIEGRTIALVSDAGMPAISDPGYELVVSAIKEGIAVIPIPGANAAVTALIASGLPTESFQFIGFLPRQKKQRRQALEETKPTKATLIFYESPHRLKDTLDDMLLILGNRHVSICRELTKTYEEFLRGTLEEAVHWAREATIKGEFCLIVEGNGEKVEPEEVWWESLSPVQHVEHYIALGFRSKEAIKQVATDRGVPKRDIYNIYHQEEGHHHHHH",
    "Result": "soluble"
  },
  {
    "Sequence Record": "EVKLQESGAGLVQPSQSLSLTCSVTGYSITSGYYWNWIRLFPGNKLEWVGYISNVGDNNYNPSLKDRLSITRDTSKNQFFLKLNSVTTEDTATYYCARSEYYSVTGYAMDYWGQGTTVTVSSAWRHP",
    "Result": "soluble"
  }
]
